system: MPNST complex spheroid with HUVEC/MSC, growth, % test/control; experiment: Anticancer human tumor MPNST cell line growth inhibition [Asc]; settings: second compound 0.1 µM; first compound 0.1 µM; hits give low values;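 also: compounds left on spheroids for seven days before reading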
API: label(entry) gives Yes if the entry's viability, T/C is strictly smaller than 70%; on equality or larger values it gives No.

compound	assigned-class
C#Cc1c(F)ccc2cc(O)cc(-c3ncc4c(N5CC6CCC(C5)N6)nc(OCC56CCCN5CC(F)C6)nc4c3F)c12 (configuration not stated) + Cc1c(S(C)(=O)=O)c(-c2cc(F)cc(N3CCN(c4ccc(NS(=O)(=O)c5ccc(NC(CCN6CCC(C(=O)OCCCP(=O)(O)O)CC6)CSc6ccccc6)c(S(=O)(=O)C(F)(F)F)c5)cc4)CC3)c2)c(-c2ccc(Cl)cc2)n1C(C)C	No
C#Cc1c(F)ccc2cc(O)cc(-c3ncc4c(N5CC6CCC(C5)N6)nc(OCC56CCCN5CC(F)C6)nc4c3F)c12 (configuration not stated) + CNC(C)C(=O)NC1CN(S(=O)(=O)c2cccc(S(=O)(=O)N3CCC4CCC(C(=O)NC(c5ccccc5)c5ccccc5)N4C(=O)C(NC(=O)C(C)NC)C3)c2)CCC2CCC(C(=O)NC(c3ccccc3)c3ccccc3)N2C1=O	Yes
COc1c(OCCCN2CCOCC2)ccc2c3n(c(=NC(=O)c4cnc(N)nc4)nc12)CCN3 + CNC(C)C(=O)NC1CN(S(=O)(=O)c2cccc(S(=O)(=O)N3CCC4CCC(C(=O)NC(c5ccccc5)c5ccccc5)N4C(=O)C(NC(=O)C(C)NC)C3)c2)CCC2CCC(C(=O)NC(c3ccccc3)c3ccccc3)N2C1=O	Yes
COc1c(OCCCN2CCOCC2)ccc2c3n(c(=NC(=O)c4cnc(N)nc4)nc12)CCN3 + Cc1c(S(C)(=O)=O)c(-c2cc(F)cc(N3CCN(c4ccc(NS(=O)(=O)c5ccc(NC(CCN6CCC(C(=O)OCCCP(=O)(O)O)CC6)CSc6ccccc6)c(S(=O)(=O)C(F)(F)F)c5)cc4)CC3)c2)c(-c2ccc(Cl)cc2)n1C(C)C	Yes
CNC(C)C(=O)NC1CN(S(=O)(=O)c2cccc(S(=O)(=O)N3CCC4CCC(C(=O)NC(c5ccccc5)c5ccccc5)N4C(=O)C(NC(=O)C(C)NC)C3)c2)CCC2CCC(C(=O)NC(c3ccccc3)c3ccccc3)N2C1=O (configuration not stated) + Cc1c(S(C)(=O)=O)c(-c2cc(F)cc(N3CCN(c4ccc(NS(=O)(=O)c5ccc(NC(CCN6CCC(C(=O)OCCCP(=O)(O)O)CC6)CSc6ccccc6)c(S(=O)(=O)C(F)(F)F)c5)cc4)CC3)c2)c(-c2ccc(Cl)cc2)n1C(C)C	No
O=C(c1ccc(F)c(F)c1Nc1ccc(I)cc1F)N1CC(O)([C@@H]2CCCCN2)C1 + CNC(C)C(=O)NC1CN(S(=O)(=O)c2cccc(S(=O)(=O)N3CCC4CCC(C(=O)NC(c5ccccc5)c5ccccc5)N4C(=O)C(NC(=O)C(C)NC)C3)c2)CCC2CCC(C(=O)NC(c3ccccc3)c3ccccc3)N2C1=O	No
NC1CCC(NC2CC2c2ccccc2)CC1 (configuration not stated) + Cc1c(S(C)(=O)=O)c(-c2cc(F)cc(N3CCN(c4ccc(NS(=O)(=O)c5ccc(NC(CCN6CCC(C(=O)OCCCP(=O)(O)O)CC6)CSc6ccccc6)c(S(=O)(=O)C(F)(F)F)c5)cc4)CC3)c2)c(-c2ccc(Cl)cc2)n1C(C)C	Yes
